# TARGET_DESC: PI3K (p110α/p85α) (Homo sapiens, UniProt P42336)
# Construct: purchased Carna Biosciences 07CBS-0402A
# Sequence (P42336 whole entry): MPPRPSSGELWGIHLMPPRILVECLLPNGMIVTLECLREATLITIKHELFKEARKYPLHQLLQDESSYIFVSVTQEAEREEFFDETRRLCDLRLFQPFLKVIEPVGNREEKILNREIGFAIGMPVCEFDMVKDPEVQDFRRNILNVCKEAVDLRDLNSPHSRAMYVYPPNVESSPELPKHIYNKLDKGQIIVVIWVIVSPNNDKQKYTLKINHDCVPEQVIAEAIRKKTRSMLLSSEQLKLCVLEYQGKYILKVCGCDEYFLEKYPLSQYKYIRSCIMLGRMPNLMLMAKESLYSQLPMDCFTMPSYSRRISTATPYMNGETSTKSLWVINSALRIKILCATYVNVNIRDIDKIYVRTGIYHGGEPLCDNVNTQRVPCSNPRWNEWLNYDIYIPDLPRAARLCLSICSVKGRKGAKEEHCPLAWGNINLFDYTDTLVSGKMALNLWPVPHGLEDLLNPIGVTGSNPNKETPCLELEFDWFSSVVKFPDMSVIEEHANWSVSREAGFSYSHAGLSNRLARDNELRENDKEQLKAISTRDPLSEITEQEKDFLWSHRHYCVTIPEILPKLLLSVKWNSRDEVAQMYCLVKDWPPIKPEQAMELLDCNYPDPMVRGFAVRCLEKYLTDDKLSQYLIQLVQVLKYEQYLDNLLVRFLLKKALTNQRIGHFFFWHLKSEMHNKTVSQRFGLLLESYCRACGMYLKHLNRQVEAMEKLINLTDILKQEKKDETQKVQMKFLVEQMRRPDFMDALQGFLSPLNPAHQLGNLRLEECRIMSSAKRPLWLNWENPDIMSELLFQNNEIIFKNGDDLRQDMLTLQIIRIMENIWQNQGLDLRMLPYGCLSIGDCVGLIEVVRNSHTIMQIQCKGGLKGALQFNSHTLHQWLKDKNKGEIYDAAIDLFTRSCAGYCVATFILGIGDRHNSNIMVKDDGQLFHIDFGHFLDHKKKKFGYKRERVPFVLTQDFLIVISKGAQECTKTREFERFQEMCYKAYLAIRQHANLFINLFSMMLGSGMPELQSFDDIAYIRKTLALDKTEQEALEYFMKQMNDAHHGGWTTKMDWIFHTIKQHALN
# Sequence (P27986 whole entry partner): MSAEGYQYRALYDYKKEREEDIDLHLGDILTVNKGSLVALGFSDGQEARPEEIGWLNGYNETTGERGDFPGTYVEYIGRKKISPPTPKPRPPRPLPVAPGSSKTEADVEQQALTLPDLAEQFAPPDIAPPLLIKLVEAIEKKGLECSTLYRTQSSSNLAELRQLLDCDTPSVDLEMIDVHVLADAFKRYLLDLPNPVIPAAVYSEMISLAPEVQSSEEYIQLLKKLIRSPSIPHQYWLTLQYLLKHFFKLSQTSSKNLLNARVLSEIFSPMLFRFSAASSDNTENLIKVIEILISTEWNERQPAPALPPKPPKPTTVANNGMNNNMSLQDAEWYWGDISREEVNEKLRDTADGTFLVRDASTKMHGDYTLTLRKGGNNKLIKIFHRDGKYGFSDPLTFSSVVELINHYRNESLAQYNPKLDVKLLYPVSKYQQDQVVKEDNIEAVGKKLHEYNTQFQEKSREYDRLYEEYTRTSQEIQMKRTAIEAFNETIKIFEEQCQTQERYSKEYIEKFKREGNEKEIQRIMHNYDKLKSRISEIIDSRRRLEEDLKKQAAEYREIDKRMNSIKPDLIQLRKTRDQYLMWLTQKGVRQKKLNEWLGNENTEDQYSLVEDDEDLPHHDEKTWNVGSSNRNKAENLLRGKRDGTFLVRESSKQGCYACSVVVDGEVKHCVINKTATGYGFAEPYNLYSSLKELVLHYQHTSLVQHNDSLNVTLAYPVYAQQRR
# EXPERIMENT_DESCRIPTION: PI3K activity assay (ADP Hunter Plus)
# Type: biochemical
# CONDITION_INFO: PI3Kα; quantitative results; read-out: PI3K α IC50
Let's look at some molecules and their measured pIC50.
Schema: pIC50 number; meaning minus log10 of the concentration expressed in molar units.

Consider the following illustrative entries.
CCOC(=O)N1CCc2nc3c(N4CCOCC4)nc(-c4cnc(OC)nc4)cn3c2C1    6.14
Nc1ncc(-c2cn3c4c(nc3c(N3CCOCC3)n2)CCN(C(=O)NCc2ccccc2F)C4)cn1    7.34

Fill in: pIC50 of COc1ccccc1NC(=O)N1CCc2nc3c(N4CCOCC4)nc(-c4cnc(N)nc4)cn3c2C1 is ___ 7.33

Taken from patent US20130029967A1.
